Recorded values, source paper PMC12040169.

Provide the recorded viability at 28.5 h, 10 µM for the entries that follow.
- ASSAY NOTES: in vitro
- RUN PARAMETERS: human, hela cells, % viability
Give bare numbers, in %.

# example entries with known answers
- COMPOUND: "O=C(CNCc1ccc2c(c1)OCO2)NCc1ccc2c(c1)OCO2"
  viability at 28.5 h, 10 µM [%]: 86.8
- COMPOUND: "CC1CCN(S(=O)(=O)c2cccs2)CC1"
  viability at 28.5 h, 10 µM [%]: 118
- COMPOUND: "O=C(Nc1sc2c(c1C(=O)NCC1CCCO1)CCCC2)c1ccccc1[N+](=O)[O-] (stereo not drawn)"
  viability at 28.5 h, 10 µM [%]: 102

# map each compound to its viability at 28.5 h, 10 µM
1. Cc1ccc(SCCNC(=O)CSc2n[nH]c(=O)n2C2CC2)cc1
2. CC1(CNC(=O)c2ccc(N3CCCCC3)cc2)COC1
3. O=C(/C=C/c1c[nH]c2ccccc12)c1ccc(C(=O)/C=C/c2c[nH]c3ccccc23)cc1
4. Cc1cc(NC(=O)CN2CCN(Cc3ccccc3C#N)CC2)no1
5. CCc1cc(NC[C@@H](O)CO)nc(-c2ccc(F)c(Cl)c2)n1
6. Cc1nc(CN2CCC(O)(c3ccccc3F)CC2)c2ccccn12

Response:
1. 120
2. 105
3. 106
4. 77.3
5. 74.4
6. 98.1
